MEASUREMENT DESCRIPTION: Intrinsic clearance for reactive metabolites formation per mg of protein based on cytochrome P450 (unknown origin) inactivation rate by TDI assay
PARTICULARS: human
READOUT NAME: clearance (µL/min/mg)
Numbers only, in µL/min/mg.

The cases that follow already have their clearance on record.
• Cc1cc2c(s1)Nc1ccccc1N=C2N1CCN(C)CC1 = 0.006
• CCc1ccc(CCOc2ccc(CC3SC(=O)NC3=O)cc2)nc1 (configuration not stated) = 0.036
• Cc1ccnc2c1NC(=O)c1cccnc1N2C1CC1 = 0.001

Please give clearance, item by item, for the list that follows.
1. CC(C)c1nc(CN(C)C(=O)N[C@H](C(=O)N[C@@H](Cc2ccccc2)C[C@H](O)[C@H](Cc2ccccc2)NC(=O)OCc2cncs2)C(C)C)cs1
2. CC(C)NCC(O)COc1cccc2ccccc12 (configuration not stated)
3. CCc1oc2ccccc2c1C(=O)c1cc(Br)c(O)c(Br)c1
4. COC(=O)[C@H](c1ccccc1Cl)N1CCc2sccc2C1

3.55
0.004
0.002
0.848

----------
SYSTEM: CYP2D6 (Homo sapiens, UniProt P10635)
Sequence (P10635 whole entry): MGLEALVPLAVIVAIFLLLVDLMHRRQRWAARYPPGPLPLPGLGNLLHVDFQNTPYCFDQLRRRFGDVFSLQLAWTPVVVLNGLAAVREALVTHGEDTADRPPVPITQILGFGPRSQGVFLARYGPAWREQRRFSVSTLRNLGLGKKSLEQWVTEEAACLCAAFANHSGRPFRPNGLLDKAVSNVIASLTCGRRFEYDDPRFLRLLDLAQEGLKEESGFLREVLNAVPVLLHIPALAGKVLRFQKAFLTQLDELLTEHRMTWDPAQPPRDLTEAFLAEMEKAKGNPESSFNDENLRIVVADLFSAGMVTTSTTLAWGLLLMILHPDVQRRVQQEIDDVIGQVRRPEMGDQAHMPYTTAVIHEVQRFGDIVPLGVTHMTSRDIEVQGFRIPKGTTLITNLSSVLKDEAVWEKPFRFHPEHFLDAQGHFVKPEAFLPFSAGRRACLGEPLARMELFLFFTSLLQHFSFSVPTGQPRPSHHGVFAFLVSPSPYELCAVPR
MEASUREMENT DESCRIPTION: in vitro
READOUT NAME: inhibition at 100 µM

- COc1ccc(CCN(C)CCCC(C#N)(c2ccc(OC)c(OC)c2)C(C)C)cc1OC (stereo not given): < 10%

Please give inhibition at 100 µM, item by item, for the list that follows.
1. CN(C)CCCN1c2ccccc2CCc2ccccc21 [IMIPRAMINE]
2. Cc1cc2c(s1)Nc1ccccc1N=C2N1CCN(C)CC1 [OLANZAPINE]
3. CCCC(CCC)C(=O)O [VALPROIC ACID]
4. Cc1ccnc2c1NC(=O)c1cccnc1N2C1CC1 [NEVIRAPINE]
5. Cc1cc(CC(=O)O)n(C)c1C(=O)c1ccc(Cl)cc1 [ZOMEPIRAC]
6. NC(=O)N1c2ccccc2C=Cc2ccccc21 [CARBAMAZEPINE]
7. CN1CCN(C2=Nc3cc(Cl)ccc3Nc3ccccc32)CC1 [CLOZAPINE]

< 10%
63%
< 10%
< 10%
< 10%
< 10%
< 10%

Please give inhibition at 100 µM, item by item, for the list that follows.
1. O=C(O)Cc1ccccc1Nc1c(Cl)cccc1Cl [DICLOFENAC]
2. CC(=O)CC(c1ccccc1)c1c(O)c2ccccc2oc1=O (stereo not given) [WARFARIN]

< 10%
< 10%

----------
SYSTEM: CYP1A2 (Homo sapiens)
Sequence (P05177 whole entry): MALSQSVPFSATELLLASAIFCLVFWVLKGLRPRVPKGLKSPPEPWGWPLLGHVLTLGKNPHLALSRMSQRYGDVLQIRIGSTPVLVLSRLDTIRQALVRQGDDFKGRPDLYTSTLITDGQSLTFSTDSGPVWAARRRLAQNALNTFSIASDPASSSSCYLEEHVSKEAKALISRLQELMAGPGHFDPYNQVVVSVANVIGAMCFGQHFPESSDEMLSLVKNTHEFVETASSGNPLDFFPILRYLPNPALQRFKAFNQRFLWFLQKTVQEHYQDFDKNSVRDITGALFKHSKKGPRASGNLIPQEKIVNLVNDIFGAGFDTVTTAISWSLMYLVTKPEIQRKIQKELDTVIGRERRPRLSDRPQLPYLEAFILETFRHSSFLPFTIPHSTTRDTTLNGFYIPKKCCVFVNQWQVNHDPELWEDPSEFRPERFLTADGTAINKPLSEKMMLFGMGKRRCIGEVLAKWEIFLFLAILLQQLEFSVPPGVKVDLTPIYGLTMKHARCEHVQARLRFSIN
MEASUREMENT DESCRIPTION: in vitro
READOUT NAME: inhibition at 100 µM

The cases that follow already have their inhibition at 100 µM on record.
- C[C@H]1COc2c(N3CCN(C)CC3)c(F)cc3c(=O)c(C(=O)O)cn1c23.C[C@H]1COc2c(N3CCN(C)CC3)c(F)cc3c(=O)c(C(=O)O)cn1c23.O: < 10%
- CC/C(=C(\c1ccccc1)c1ccc(OCCN(C)C)cc1)c1ccccc1: < 10%
- CC[C@H](C)C(=O)O[C@H]1C[C@H](O)C=C2C=C[C@H](C)[C@H](CC[C@@H](O)C[C@@H](O)CC(=O)O)[C@H]21: < 10%
- Cc1cc(CC(=O)O)n(C)c1C(=O)c1ccc(Cl)cc1 [ZOMEPIRAC]: < 10%

Please give inhibition at 100 µM, item by item, for the list that follows.
1. CCN(CC)CCNC(=O)c1ccc(N)cc1 [PROCAINAMIDE]
2. CC(C)NCC(O)COc1cccc2ccccc12 (stereo not drawn)

["< 10%", "25%"]

Please give inhibition at 100 µM, item by item, for the list that follows.
1. Cc1ccnc2c1NC(=O)c1cccnc1N2C1CC1
2. C#C[C@]1(O)CC[C@H]2[C@@H]3CCc4cc(O)ccc4[C@H]3CC[C@@]21C

< 10%
18%

----------
SYSTEM: CYP2B6 (Homo sapiens, UniProt P20813)
Sequence (P20813 whole entry): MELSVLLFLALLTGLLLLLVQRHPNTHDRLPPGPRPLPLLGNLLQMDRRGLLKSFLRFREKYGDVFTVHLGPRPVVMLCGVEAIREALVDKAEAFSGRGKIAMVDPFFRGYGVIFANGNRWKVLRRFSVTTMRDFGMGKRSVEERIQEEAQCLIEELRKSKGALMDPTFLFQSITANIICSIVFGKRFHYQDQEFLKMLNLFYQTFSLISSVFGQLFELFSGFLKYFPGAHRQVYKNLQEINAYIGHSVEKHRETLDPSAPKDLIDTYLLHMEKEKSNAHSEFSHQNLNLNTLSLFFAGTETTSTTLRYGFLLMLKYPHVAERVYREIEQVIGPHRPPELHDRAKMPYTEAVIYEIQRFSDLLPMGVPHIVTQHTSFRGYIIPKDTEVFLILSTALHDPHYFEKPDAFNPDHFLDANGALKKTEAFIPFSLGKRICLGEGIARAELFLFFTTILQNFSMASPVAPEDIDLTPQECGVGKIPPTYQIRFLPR
MEASUREMENT DESCRIPTION: in vitro
READOUT NAME: inhibition at 0.1 µM (%)
Numbers only, in %.

Lab note: measured inhibition at 0.1 µM of Clc1ccccc1CN1CCc2sccc2C1 was 35

----------
SYSTEM: CYP3A4 (Homo sapiens)
Sequence (P08684 whole entry): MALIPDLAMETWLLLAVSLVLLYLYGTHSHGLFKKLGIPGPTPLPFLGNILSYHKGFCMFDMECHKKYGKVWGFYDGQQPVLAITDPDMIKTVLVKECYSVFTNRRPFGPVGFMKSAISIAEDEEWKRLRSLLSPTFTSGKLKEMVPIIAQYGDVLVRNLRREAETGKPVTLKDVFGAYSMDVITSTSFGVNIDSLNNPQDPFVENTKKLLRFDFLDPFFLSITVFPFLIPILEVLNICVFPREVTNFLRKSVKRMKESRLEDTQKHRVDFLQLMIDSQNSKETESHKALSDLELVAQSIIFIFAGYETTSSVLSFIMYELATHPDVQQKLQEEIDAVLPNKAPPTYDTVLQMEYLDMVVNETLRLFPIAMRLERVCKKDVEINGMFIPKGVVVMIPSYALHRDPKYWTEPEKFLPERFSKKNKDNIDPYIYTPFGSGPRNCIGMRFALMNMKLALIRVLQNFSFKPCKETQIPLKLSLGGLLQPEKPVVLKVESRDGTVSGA
MEASUREMENT DESCRIPTION: Time dependent inhibition of CYP3A4 (unknown origin) at 10 uM by LC/MS system
Format: ADME
READOUT NAME: inhibition at 10 µM

* Cc1ccc(-c2cc(C(F)(F)F)nn2-c2ccc(S(N)(=O)=O)cc2)cc1 [CELECOXIB] | < 10%

Please give inhibition at 10 µM, item by item, for the list that follows.
1. COc1cc(C(=O)NS(=O)(=O)c2ccccc2C)ccc1Cc1cn(C)c2ccc(NC(=O)OC3CCCC3)cc12 [ZAFIRLUKAST]
2. CCc1oc2ccccc2c1C(=O)c1cc(Br)c(O)c(Br)c1 [BENZBROMARONE]
3. CC(=O)Nc1ccc(O)cc1 [ACETAMINOPHEN]

1: 43%; 2: < 10%; 3: < 10%

Please give inhibition at 10 µM, item by item, for the list that follows.
1. NC(=O)N1c2ccccc2C=Cc2ccccc21 [CARBAMAZEPINE]
2. CCOC(=O)C1=C(COCCN)NC(C)=C(C(=O)OC)C1c1ccccc1Cl (stereo unspecified) [AMLODIPINE]

["< 10%", "< 10%"]

----------
Test system: Liver microsome
PARTICULARS: human, microsomes, 100 µM
// no strictly below 0.03 µL/min/mg in CLH; yes otherwise

Solved entries (count: 5):
* Cc1cc2c(s1)Nc1ccccc1N=C2N1CCN(C)CC1 | yes
* COC(=O)[C@H](c1ccccc1Cl)N1CCc2sccc2C1 | yes
* CCN(CC)Cc1cc(Nc2ccnc3cc(Cl)ccc23)ccc1O | no
* CC(C)C(=O)Nc1ccc([N+](=O)[O-])c(C(F)(F)F)c1 [FLUTAMIDE] | no
* O=C(O)COc1ccc(C(=O)c2cccs2)c(Cl)c1Cl | yes

Would you say C#C[C@]1(O)CC[C@H]2[C@@H]3CCc4cc(O)ccc4[C@H]3CC[C@@]21C shows CLH at minimum 0.03 µL/min/mg?
yes

Would you say O=C(O)Cc1ccccc1Nc1c(Cl)cccc1Cl shows CLH at minimum 0.03 µL/min/mg?
no

Would you say O=C1NC(=O)C(c2ccccc2)(c2ccccc2)N1 shows CLH at minimum 0.03 µL/min/mg?
no

Would you say CN(CCOc1ccc(CC2SC(=O)NC2=O)cc1)c1ccccn1 (stereo unspecified) shows CLH at minimum 0.03 µL/min/mg?
no

Would you say Cc1ccnc2c1NC(=O)c1cccnc1N2C1CC1 shows CLH at minimum 0.03 µL/min/mg?
no

----------
Please provide measured inhibition at 3 µM for the entries that follow.
SYSTEM: CYP2C8 (Homo sapiens, UniProt P10632)
Sequence (P10632 whole entry): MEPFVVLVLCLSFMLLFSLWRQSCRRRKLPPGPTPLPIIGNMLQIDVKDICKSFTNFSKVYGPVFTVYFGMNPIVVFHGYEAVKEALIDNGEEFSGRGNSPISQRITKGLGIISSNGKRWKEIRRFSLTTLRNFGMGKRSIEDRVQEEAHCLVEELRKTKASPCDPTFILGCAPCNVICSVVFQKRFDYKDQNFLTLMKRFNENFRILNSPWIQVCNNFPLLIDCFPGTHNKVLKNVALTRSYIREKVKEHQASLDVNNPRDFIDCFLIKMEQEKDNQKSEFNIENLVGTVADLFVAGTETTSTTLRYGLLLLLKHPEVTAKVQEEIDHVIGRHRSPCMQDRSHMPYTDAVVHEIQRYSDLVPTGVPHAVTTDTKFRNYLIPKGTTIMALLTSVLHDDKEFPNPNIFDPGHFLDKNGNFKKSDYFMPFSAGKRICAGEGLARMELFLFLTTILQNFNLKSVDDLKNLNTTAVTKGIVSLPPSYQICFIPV
MEASUREMENT DESCRIPTION: Time dependent inhibition of CYP2C8 (unknown origin) at 3 uM by LC/MS system
Assay type: ADME

• CCc1oc2ccccc2c1C(=O)c1cc(Br)c(O)c(Br)c1 = < 10%

Now look at this one.
Reading of inhibition at 3 µM for COc1cc(C(=O)NS(=O)(=O)c2ccccc2C)ccc1Cc1cn(C)c2ccc(NC(=O)OC3CCCC3)cc12 with CYP2C8 (Homo sapiens, UniProt P10632): < 10%
